Tested on: asparaginase I
test summary: Effect of inducer and media composition on asparaginase I production
Assay type: cell-based, Rhodococcus sp. DAP 96253
cond: Rhodococcus sp. DAP 96253; inducer 1000 ppm; YEMEA - Maltose; with cobalt
recorded metric: Asparaginase I levels, YEMEA - Maltose With Cobalt (units/mg cell dry weight)
Numbers only; they are read as units/mg cell dry weight.

# N#CCCC#N [Succinonitrile, succinonitrile, reference compound] with asparaginase I: Asparaginase I levels, YEMEA - Maltose With Cobalt is 10.0

# CC(C)CC#N [Isovaleronitrile, isovaleronitrile, reference compound] with asparaginase I: Asparaginase I levels, YEMEA - Maltose With Cobalt is 7.0

# NC(=O)CC[C@H](N)C(=O)O with asparaginase I: Asparaginase I levels, YEMEA - Maltose With Cobalt is 8.1

# NC(=O)C[C@H](N)C(=O)O with asparaginase I: Asparaginase I levels, YEMEA - Maltose With Cobalt is 24.6
